tested-system: T1, human TIGIT expressed on cells (human, UniProt Q495A1 22-244)
T1 construct: whole, on cells; on Jurkat E6.1 cells transduced with human TIGIT, on Promega TIGIT Effector cells or on human primary T cells; the assay field says which; also called hTIGIT; Jurkat-hTIGIT
T1 sequence (looked up): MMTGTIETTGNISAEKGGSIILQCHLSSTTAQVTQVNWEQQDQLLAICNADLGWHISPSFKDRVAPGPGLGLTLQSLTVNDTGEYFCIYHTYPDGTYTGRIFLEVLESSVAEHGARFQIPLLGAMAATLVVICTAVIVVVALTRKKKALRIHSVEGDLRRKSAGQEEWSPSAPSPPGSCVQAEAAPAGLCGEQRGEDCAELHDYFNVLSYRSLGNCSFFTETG
method-summary: flow cytometry, competition with CD155-His (5 ug/ml) on Jurkat-hTIGIT

binder: anti-TIGIT antibody clone 29499 (IgG) (antibody, V domains shown) VH: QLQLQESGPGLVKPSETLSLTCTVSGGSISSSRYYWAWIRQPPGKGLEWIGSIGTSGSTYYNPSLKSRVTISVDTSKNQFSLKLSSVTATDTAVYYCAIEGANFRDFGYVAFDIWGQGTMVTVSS VL: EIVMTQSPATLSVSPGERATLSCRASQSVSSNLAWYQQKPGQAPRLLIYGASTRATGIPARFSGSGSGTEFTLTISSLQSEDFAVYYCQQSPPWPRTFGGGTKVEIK
IC50 [pM]: 103
--
binder: anti-TIGIT antibody clone 29527 (IgG) (antibody, V domains shown) VH: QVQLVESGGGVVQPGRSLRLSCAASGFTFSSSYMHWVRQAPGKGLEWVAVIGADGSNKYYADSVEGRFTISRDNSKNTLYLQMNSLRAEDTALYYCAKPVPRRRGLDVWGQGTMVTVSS VL: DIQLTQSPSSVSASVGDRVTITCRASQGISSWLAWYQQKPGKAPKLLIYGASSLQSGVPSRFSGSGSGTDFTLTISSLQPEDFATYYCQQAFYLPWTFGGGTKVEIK
IC50 [pM]: 78
--
binder: anti-TIGIT antibody clone 29494 (IgG) (antibody, V domains shown) VH: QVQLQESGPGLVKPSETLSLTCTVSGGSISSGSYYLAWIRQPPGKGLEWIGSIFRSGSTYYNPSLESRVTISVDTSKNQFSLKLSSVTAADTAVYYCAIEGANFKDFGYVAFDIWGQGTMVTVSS VL: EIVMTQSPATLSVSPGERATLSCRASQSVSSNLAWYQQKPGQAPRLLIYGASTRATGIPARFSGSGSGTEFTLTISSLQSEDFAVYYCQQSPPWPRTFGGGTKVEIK
IC50 [pM]: 70
--
binder: anti-TIGIT antibody clone 29520 (IgG) (antibody, V domains shown) VH: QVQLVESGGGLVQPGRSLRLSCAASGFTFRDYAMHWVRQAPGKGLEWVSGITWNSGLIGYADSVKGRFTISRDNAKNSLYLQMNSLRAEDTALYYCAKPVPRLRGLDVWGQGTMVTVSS VL: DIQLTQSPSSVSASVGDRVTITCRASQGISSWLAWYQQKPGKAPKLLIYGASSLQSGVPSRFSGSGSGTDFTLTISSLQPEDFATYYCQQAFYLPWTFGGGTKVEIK
IC50 [pM]: 102
--
binder: anti-TIGIT antibody clone 29513 (IgG) (antibody, V domains shown) VH: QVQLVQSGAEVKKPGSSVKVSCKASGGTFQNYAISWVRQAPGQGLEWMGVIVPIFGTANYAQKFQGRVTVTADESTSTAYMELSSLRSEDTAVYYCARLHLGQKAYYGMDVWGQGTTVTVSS VL: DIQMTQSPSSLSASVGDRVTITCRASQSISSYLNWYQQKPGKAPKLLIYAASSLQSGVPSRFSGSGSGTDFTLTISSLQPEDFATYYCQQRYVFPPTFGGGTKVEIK
IC50 [pM]: 94
--
binder: anti-TIGIT antibody clone 29523 (IgG) (antibody, V domains shown) VH: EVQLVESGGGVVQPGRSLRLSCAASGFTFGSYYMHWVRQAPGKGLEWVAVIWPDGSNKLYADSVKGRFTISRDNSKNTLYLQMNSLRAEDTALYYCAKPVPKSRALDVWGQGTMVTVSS VL: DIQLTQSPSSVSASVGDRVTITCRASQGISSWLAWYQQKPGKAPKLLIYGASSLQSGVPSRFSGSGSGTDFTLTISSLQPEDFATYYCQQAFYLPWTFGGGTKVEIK
IC50 [pM]: 79

Reference source: patent US20200407445A1
